Inhibition: recorded values
- Tested on: Plasmodium falciparum
- Method summary: GSK_TCMDC: Inhibition of Plasmodium falciparum Dd2 in whole red blood cells, using parasite LDH activity as an index of growth. Test compounds present at 2uM
- Type: functional
Give the value; after it, write the unit.

Worked examples, 5 compounds total:
[
  {
    "Compound": "CN1CCC(N(C)C(=O)C=Cc2cn(-c3ccccc3)nc2-c2cc3ccccc3o2)CC1.Cl",
    "Measured quantity": "Inhibition",
    "Obs value": "5%"
  },
  {
    "Compound": "Cc1ccccc1OCC(O)CN1CCC(C2CCN(CC(O)COc3ccccc3C)CC2)CC1 (stereo not drawn)",
    "Measured quantity": "Inhibition",
    "Obs value": "51%"
  },
  {
    "Compound": "Cl.Nc1nc(N)c2c(ccc3c2ccn3CCCC2CCCNC2)n1 (stereo not drawn)",
    "Measured quantity": "Inhibition",
    "Obs value": "55%"
  },
  {
    "Compound": "CN1CCN(c2ccnc3cc4c(cc23)N(C(=O)Nc2ccc3c(c2)CCCC3=O)CC4)CC1.Cl",
    "Measured quantity": "Inhibition",
    "Obs value": "64%"
  },
  {
    "Compound": "CCOC(=O)CCCOc1cc(Cc2cnc(N)nc2N)cc(OC)c1OC",
    "Measured quantity": "Inhibition",
    "Obs value": "3%"
  }
]

Query string: Entry COc1c(C2CCN(CCN3CCC(NC(=O)c4ccc(-c5ccc(C(F)(F)F)cc5)cc4)CC3)CC2)ccc2c1CCCC2 has what Inhibition?
Result string: 35%

Query string: Entry Cn1ccnc1-c1nc2ccccn2c1NCC(=O)Nc1ccccc1N1CCCCC1 has what Inhibition?
Result string: 57%

Query string: Entry COC(=O)C(C)(C)Cc1c(SC(C)(C)C)c2cc(C(C)C)ccc2n1Cc1ccc(Cl)cc1 has what Inhibition?
Result string: 96%

* * *

Inhibition: recorded values
- Test system: Plasmodium falciparum
- Method summary: GSK_TCMDC: Inhibition of Plasmodium falciparum 3D7 in whole red blood cells, using parasite LDH activity as an index of growth. Test compounds present at 2uM
- Type: functional

Worked examples, 2 compounds total:
[
  {
    "Compound": "O=[N+]([O-])c1ccc(N/C(=N\\c2ccccc2Br)NC2CCCc3ccccc32)c(O)c1 (stereo not drawn)",
    "Inhibition": "98%"
  },
  {
    "Compound": "COc1ccc2ccccc2c1C=NN=c1cc[nH]c2ccc(F)cc12",
    "Inhibition": "87%"
  }
]

Pending compound:
Query string: Entry Cl.Fc1cc(Cl)ccc1Nc1ccnc2cc(-c3ccc(CN4CCNCC4)o3)ccc12 has what Inhibition?
Result string: 100%

* * *

- System: Plasmodium falciparum
- Method summary: GSK_TCMDC: Inhibition of Plasmodium falciparum 3D7 in whole red blood cells, using parasite LDH activity as an index of growth. Test compounds present at 2uM
- Format: functional
Measured quantity: Inhibition (%)
State just the number; it will be interpreted in %.

Worked examples, 6 compounds total:
[
  {
    "Compound": "O=C(Nc1ccc(Br)cc1)N1CCC(n2c(-c3ccccc3)nc3cccnc32)CC1",
    "Measured quantity": "Inhibition",
    "Obs value": 90
  },
  {
    "Compound": "COc1ccc2c(NN=Cc3ccccn3)ccnc2c1",
    "Measured quantity": "Inhibition",
    "Obs value": 100
  },
  {
    "Compound": "O=S(=O)(c1c(Cl)cc(Cl)cc1Cl)N1CCCCC(c2ccc(F)c(F)c2)=N1",
    "Measured quantity": "Inhibition",
    "Obs value": 87
  },
  {
    "Compound": "O=C(Nc1cccc(CN2CCN(Cc3ccc(O)cc3)CC2)c1)c1ccc(Cl)c(Cl)c1.O=C(O)C(F)(F)F",
    "Measured quantity": "Inhibition",
    "Obs value": 100
  },
  {
    "Compound": "COc1ccc(-c2ccc([N+](=O)[O-])cc2C(=O)NCC(C)Oc2ccc(C(F)(F)F)cc2)cc1 (stereo not drawn)",
    "Measured quantity": "Inhibition",
    "Obs value": 100
  },
  {
    "Compound": "Cc1cc(CNC(c2ccccc2)C2CCC2)cc(C)c1O (stereo not drawn)",
    "Measured quantity": "Inhibition",
    "Obs value": 94
  }
]

Query string: Entry CN1CCC[C@H]1COc1ccc(CN2CC[C@H](NC(=O)c3ccc(Cl)c(Cl)c3)C2)c2ccccc12.O=C(O)C(F)(F)F has what Inhibition?
Result string: 100

Query string: Entry Cc1[nH]c(C)c(-c2ccc(OCc3cccc(C(F)(F)F)c3)nc2)c(=O)c1Br has what Inhibition?
Result string: 99
